Source: paper PMC3884107

Target: T1, RON-Fc (human RON Sema, PSI and IPT1 domains, E25-M682, Fc fusion with human IgG1) (human, UniProt Q04912-1 25-682)
T1 construct: human RON (Recepteur d'Origine Nantais, MST1R), Sema, PSI and IPT1 domains, E25-M682; also called RON-Fc fusion protein; source: CHO cells; purified (MabSelect Sure, SEC)
T1 sequence (looked up): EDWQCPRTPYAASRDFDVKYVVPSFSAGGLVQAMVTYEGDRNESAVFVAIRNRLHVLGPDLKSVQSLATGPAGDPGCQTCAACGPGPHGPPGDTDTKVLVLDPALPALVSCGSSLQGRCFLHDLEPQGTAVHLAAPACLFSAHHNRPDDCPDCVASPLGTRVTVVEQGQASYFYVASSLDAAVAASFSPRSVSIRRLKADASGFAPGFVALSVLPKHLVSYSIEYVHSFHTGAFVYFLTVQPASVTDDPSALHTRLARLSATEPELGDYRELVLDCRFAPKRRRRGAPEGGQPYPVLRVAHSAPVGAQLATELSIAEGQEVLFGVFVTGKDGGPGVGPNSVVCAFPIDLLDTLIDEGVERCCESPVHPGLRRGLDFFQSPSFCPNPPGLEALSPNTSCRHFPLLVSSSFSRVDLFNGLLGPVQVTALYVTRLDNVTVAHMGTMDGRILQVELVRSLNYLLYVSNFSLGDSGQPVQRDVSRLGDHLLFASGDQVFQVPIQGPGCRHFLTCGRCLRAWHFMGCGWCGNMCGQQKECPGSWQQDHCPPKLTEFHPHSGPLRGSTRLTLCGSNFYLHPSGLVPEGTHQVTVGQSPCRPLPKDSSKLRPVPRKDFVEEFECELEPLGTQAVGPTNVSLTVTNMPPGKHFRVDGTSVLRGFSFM
Experiment: SPR; RON-Fc captured (50-100 RU) on immobilised anti-human Fc surfaces, CM5 chip, Biacore 3000; MSP, MSP β or scMSP injected 500-3.9 nM in HBS-P (10 mM HEPES pH 7.5, 150 mM NaCl, 0.005% P20), 25°C, 30 µl/min; global 1:1 Langmuir fit, KD = koff/kon
Conditions: both partners purified
measurementLabel: pKd
Formally, pKd is defined as -log10 of the concentration c, with c in mol/L.

// sample MSP β 672C 689C (V484-G711; C588S, without C672A; 689C) (domain or fragment, human, UniProt P26927 484-711, looked up, source: CHO cells, transiently transfected, secreted; purified (Ni-NTA, SEC)) VVGGHPGNSPWTVSLRNRQGQHFCGGSLVKEQWILTARQCFSSCHMPLTGYEVWLGTLFQNPQHGEPSLQRVPVAKMVCGPSGSQLVLLKLERSVTLNQRVALISLPPEWYVVPPGTKCEIAGWGETKGTGNDTVLNVALLNVISNQECNIKHRGRVRESEMCTEGLLAPVGACEGDYGGPLACFTHNCWVLEGIIIPNRVCARSCWPAVFTRVSVFVDWIHKVMRLG , its pKd was 8.01

// sample MSP β 689R (V484-G711; C588S, C672A) (domain or fragment, human, UniProt P26927 484-711, looked up, source: CHO cells, transiently transfected, secreted; purified (Ni-NTA, SEC); not shown: His6, C-terminal, kept) VVGGHPGNSPWTVSLRNRQGQHFCGGSLVKEQWILTARQCFSSCHMPLTGYEVWLGTLFQNPQHGEPSLQRVPVAKMVCGPSGSQLVLLKLERSVTLNQRVALISLPPEWYVVPPGTKCEIAGWGETKGTGNDTVLNVALLNVISNQECNIKHRGRVRESEMCTEGLLAPVGACEGDYGGPLACFTHNAWVLEGIIIPNRVCARSRWPAVFTRVSVFVDWIHKVMRLG , its pKd was 8.02

// sample MSP β 689C (V484-G711; C588S, C672A; 689C) (domain or fragment, human, UniProt P26927 484-711, looked up, source: CHO cells, transiently transfected, secreted; purified (Ni-NTA, SEC); not shown: His6, C-terminal, kept) VVGGHPGNSPWTVSLRNRQGQHFCGGSLVKEQWILTARQCFSSCHMPLTGYEVWLGTLFQNPQHGEPSLQRVPVAKMVCGPSGSQLVLLKLERSVTLNQRVALISLPPEWYVVPPGTKCEIAGWGETKGTGNDTVLNVALLNVISNQECNIKHRGRVRESEMCTEGLLAPVGACEGDYGGPLACFTHNAWVLEGIIIPNRVCARSCWPAVFTRVSVFVDWIHKVMRLG , its pKd was 8.05

// sample MSP β 672C 689R (V484-G711; C588S, without C672A) (domain or fragment, human, UniProt P26927 484-711, looked up, source: CHO cells, transiently transfected, secreted; purified (Ni-NTA, SEC)) VVGGHPGNSPWTVSLRNRQGQHFCGGSLVKEQWILTARQCFSSCHMPLTGYEVWLGTLFQNPQHGEPSLQRVPVAKMVCGPSGSQLVLLKLERSVTLNQRVALISLPPEWYVVPPGTKCEIAGWGETKGTGNDTVLNVALLNVISNQECNIKHRGRVRESEMCTEGLLAPVGACEGDYGGPLACFTHNCWVLEGIIIPNRVCARSRWPAVFTRVSVFVDWIHKVMRLG , its pKd was 8.20
